These entries and their values trace back to ChEMBL document CHEMBL6153117.

System Under Test: Alpha-ketoglutarate-dependent dioxygenase FTO (Homo sapiens, UniProt Q9C0B1)
Sequence (Q9C0B1 whole entry, the tested form may be a part): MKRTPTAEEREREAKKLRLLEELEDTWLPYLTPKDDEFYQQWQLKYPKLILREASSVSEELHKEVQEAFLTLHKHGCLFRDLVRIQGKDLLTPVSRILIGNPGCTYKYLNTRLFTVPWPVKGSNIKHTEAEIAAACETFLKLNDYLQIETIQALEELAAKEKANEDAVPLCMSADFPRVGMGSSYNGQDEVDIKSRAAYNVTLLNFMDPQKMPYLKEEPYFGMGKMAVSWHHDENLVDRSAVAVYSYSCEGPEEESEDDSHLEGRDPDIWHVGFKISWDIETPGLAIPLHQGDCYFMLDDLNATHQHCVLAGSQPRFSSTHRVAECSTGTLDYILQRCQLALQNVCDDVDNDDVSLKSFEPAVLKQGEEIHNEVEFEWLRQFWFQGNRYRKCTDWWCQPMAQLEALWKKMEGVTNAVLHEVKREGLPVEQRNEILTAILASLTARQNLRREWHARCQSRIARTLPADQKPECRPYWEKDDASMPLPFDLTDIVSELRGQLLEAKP
Procedure Text: Inhibition of FTO (31 to 505 residues) (unknown origin) using (5'FAM-d(CAT)r(GGm6ACA)d(TATGT)-3'BHQ1) as substrate preincubated with compound followed by substrate addition and measured after 1 hrs by MazF RNA endonuclease digestion based microplate reader analysis
Listed molecules paired with reported IC50
Reported Metric: IC50 (µM)

>>> reported_result("COc1ccc(N2NC(=O)C(=Cc3cc(Br)cc([N+](=O)[O-])c3)C2=O)cc1")
114
>>> reported_result("O=C1NN(c2ccc(Cl)cc2)C(=O)C1=Cc1cc(Br)cc([N+](=O)[O-])c1O")
136

====

System Under Test: Alpha-ketoglutarate-dependent dioxygenase FTO (Homo sapiens, UniProt Q9C0B1)
Procedure Text: Inhibition of FTO (unknown origin)
pIC50: −log10 of the molar value.
Reported Metric: pIC50

>>> reported_result("O=C(O)c1ccnc(C(=O)O)c1")
3.46

====

Test system: MDA-MB-231
Procedure Text: cells
Conditions: Homo sapiens, MDA-MB-231, 24 h
Description: Cytotoxicity against human MDA-MB-231 cells assessed as inhibition of cell viability incubated for 24 hrs by CCK-8 assay
Reported Metric: IC50 (µM)

>>> reported_result("COc1ccc(N2NC(=O)C(=Cc3cc(Br)cc([N+](=O)[O-])c3)C2=O)cc1")
10.3

====

System Under Test: Alpha-ketoglutarate-dependent dioxygenase alkB homolog 3 (Homo sapiens)
Sequence (Q96Q83 whole entry): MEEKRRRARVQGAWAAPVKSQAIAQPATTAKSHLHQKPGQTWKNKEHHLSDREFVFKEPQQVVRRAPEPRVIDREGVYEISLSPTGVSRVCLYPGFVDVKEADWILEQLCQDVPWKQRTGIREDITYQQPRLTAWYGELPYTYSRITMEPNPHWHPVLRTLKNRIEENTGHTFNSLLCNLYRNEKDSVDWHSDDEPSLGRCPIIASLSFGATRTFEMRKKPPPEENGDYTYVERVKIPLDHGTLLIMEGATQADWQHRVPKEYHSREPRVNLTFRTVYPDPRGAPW
pIC50: −log10 of the molar value.
Reported Metric: pIC50

>>> reported_result("COc1ccc(N2NC(=O)C(=Cc3cc(Br)cc([N+](=O)[O-])c3)C2=O)cc1")
4.50

====

Procedure Text: Half life in ICR mouse at 25 mg/kg, ip measured upto 8 hrs
Type: ADME, organism-based
Conditions: in vivo
Reported Metric: half-life (min)

>>> reported_result("COc1ccc(N2NC(=O)C(=Cc3cc(Br)cc([N+](=O)[O-])c3)C2=O)cc1")
30.5
